Biological target: Taspase1 (Homo sapiens)
Assay: FRET-based Taspase1 proteolytic reporter (FRPR) assay
Settings: Maybridge library screen, dose-response
Measured EC50, listed per entry for reference.
Report the value in µM with no unit label.

1) CC(C)(C)c1cc(C(=O)NNC(=S)Nc2ccccc2)n(Cc2ccc(Cl)cc2Cl)n1 [SPB 08132]: 5.9
2) Cc1ccc(NC(=S)NNC(=O)Cn2nnc(-c3cccc(Cl)c3Cl)n2)cc1Cl [RJF 02020]: 3.9
3) S=C(NNC(=S)NC1CC2C=CC1C2)Nc1ccc(Br)c(Cl)c1 (stereo not shown) [CD 02506]: 1.5
4) Cc1ccc(-c2nc(NS(=O)(=O)c3cccc4nonc34)sc2C)cc1Cl [HTS 01888]: 2.2
5) Cc1ccc(S(=O)(=O)NC(=O)Nc2nc(-c3ccc(C)c(Cl)c3)c(C)s2)cc1 [HTS 06900]: 4

Supply EC50 value. Item: O=C(NNC(=S)Nc1cccc(C(F)(F)F)c1)c1sc2ccccc2c1Cl [BTB 00807]
9.9

Give a short answer stating reported EC50 for O=C(CO/N=C/c1ccc(Cl)cc1Cl)NNCCC(=S)Nc1cc(Cl)ccc1Cl [CD 06082] .
3.3

###

Target: Taspase1 (Homo sapiens, UniProt Q9H6P5)
Sequence (Q9H6P5 1-233 limits assumed): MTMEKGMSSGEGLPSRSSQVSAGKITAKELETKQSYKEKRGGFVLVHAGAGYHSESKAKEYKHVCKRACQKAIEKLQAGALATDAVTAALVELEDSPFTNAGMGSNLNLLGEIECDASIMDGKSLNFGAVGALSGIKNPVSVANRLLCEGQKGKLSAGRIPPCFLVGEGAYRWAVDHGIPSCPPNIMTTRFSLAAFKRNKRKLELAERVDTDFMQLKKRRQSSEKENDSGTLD
Assay: FRET-based Taspase1 proteolytic reporter (FRPR) assay
Details: 100 nM rTaspase1, varying concentrations of FRPR; read-out: KI of Taspase1 inhibition
MEASURED PROPERTY: Ki (µM)
Write the answer as a number in µM, unit excluded.

Read the entry O=[As](O)(O)c1ccc(Cc2ccc([As](=O)(O)O)cc2)cc1 and write its reported Ki.
4.22
